Tested on: PPARg homodimer (NR concentration 180 nM)
Test description: PBM binding z-score (relative to random genomic background probes); higher = stronger binding; sequences stand for … in GC…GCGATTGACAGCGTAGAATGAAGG

Record sequence | PBM binding z-score
CCGACTGGGGCAAAGGTTACCGTACTCAGTACGA | 1.93
ACAGACAGGTGGTGAAGGTAACTCAGGCTATCAT | 0.0722
GATACAGGGTCAAGGCTAGAGTACGCGTATTGAT | 1.69
TCACCAAGGTGAGCTGAGGTCGTTGATCCAACTC | 0.0757
TAGCCTAGGTCATGGGACAGTATACCACGCGAAC | 2.06
GGAACGAGGGTAAAGTTGATAGCATCTGTCGACG | 0.544
CGAACTAGGTCAAGTACAGTGAATCTCCGCACGC | 2.76
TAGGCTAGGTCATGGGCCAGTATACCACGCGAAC | 3.07
GCTGCTAGCTCAACTGATGGTCAGCTAAAGCTCG | -1.88
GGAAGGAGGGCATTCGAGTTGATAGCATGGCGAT | 0.39
TCGAGTAGGTTGGGGGCATTCAGAATGGCGTCGA | 0.737
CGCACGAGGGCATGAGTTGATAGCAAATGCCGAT | 0.288
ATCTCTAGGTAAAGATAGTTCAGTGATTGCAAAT | 1.19
AGTCAAAGTTCAGGAGGAGGTAACGTAAAGCACG | 2.81
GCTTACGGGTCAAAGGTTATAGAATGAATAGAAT | 1.73
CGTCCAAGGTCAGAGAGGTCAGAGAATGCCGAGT | 4.06
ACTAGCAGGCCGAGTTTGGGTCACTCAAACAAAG | -0.382
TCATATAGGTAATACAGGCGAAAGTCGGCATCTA | 0.655
AGAACGAGGGCAATGCGTTGATAGCACGGGTGGC | -0.251
AGTCAACGTTCATCTAGGTAACGTAAGATATGCT | 0.649
CGTGCAAGGTCATAGGAGGTCAGTGAAGACAGAT | 4.07
CCTTTCGGGTCAAGGTTATAGCACGGGTGGTACG | 2.93
CGTAGTTGGTCAGGAGGTCACACACCGGATATGA | 4.08
TCATATAGGTAAAGGTGAAGGTCGAACGATATGA | 1.37
TAGCCTAGGTCATCGGCCAGTATACCACGCGAAC | 1.6
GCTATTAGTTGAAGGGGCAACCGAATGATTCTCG | 1.03
